Ref: the Deep4Chem optical property database

# protocol-details: solvent given as SMILES
# condition-set: in C1CCCCC1
Param label: returns True when emission maximum < 400 nm, returns False otherwise, including exact equality.

substance_smiles=COC1=[N+]2C(=C(c3ccc(C)cc3)c3ccc(OC)n3[B-]2(F)F)C=C1 class_label=False
substance_smiles=c1cc(-c2ccc3c(c2)CCCO3)ccc1-c1ccc2c(c1)CCCO2 class_label=True
substance_smiles=C(=C\c1ncnc2ccccc12)/c1ccc(N2CCCCC2)cc1 class_label=False

====

# protocol-details: solvent given as SMILES
# condition-set: in CCO
Each entry below carries its reported emission maximum.
value-kind: emission maximum (nm)

substance_smiles=CCCCCCCCCCCCN1C(=O)c2cccc3c(N(Cc4ccccn4)Cc4ccccn4)c4ccccc4c(c23)C1=O measured_value=597
substance_smiles=CC1(C)Nc2cc3nc4cc(Cl)c(Cl)cc4nc3cc2N1 measured_value=506
substance_smiles=O=C([O-])c1ccc(C(=O)[O-])c(C2=c3cc4c5c(c3Oc3c2cc2c6c3CCCN6CCC2)CCC[N+]=5CCC4)c1 measured_value=596
substance_smiles=CC(=O)c1c2c(cc3ccc(N(C)C)cc13)CCC2 measured_value=578
substance_smiles=NC(=O)Cc1cccc2ccccc12 measured_value=325
substance_smiles=CCOC(=O)c1ccc(NC(=O)COc2cc3c4c([nH]c3c(C)c2C)C(=O)CCC4)cc1 measured_value=464.31
substance_smiles=CCOC(=O)c1cc(C(=O)OCC)c2cc(N(CC)CC)ccc2n1 measured_value=561
substance_smiles=c1cnc(-c2c3ccccc3c(-c3cncnc3)c3ccccc23)nc1 measured_value=433
substance_smiles=Cc1ccc(Nc2ccc(Nc3ccc(C)cc3)c3c2C(=O)c2ccccc2C3=O)cc1 measured_value=684
substance_smiles=C#Cc1ccc2cc(/C=C/C(=O)OCC)c(=O)oc2c1 measured_value=412
substance_smiles=Nc1ccc(C#Cc2ccc3ccc4ccc(C#Cc5ccc(N)cc5)c5ccc2c3c45)cc1 measured_value=540
substance_smiles=COc1ccc(C(=O)COc2c(C)c(=O)n3c(=O)c(C)c(COC(=O)c4ccccc4Cl)n23)cc1 measured_value=460
substance_smiles=CCCCCCCCCCCCCCCCCCN1C(=O)c2cccc3c(OCCN(C)C)ccc(c23)C1=O measured_value=510
substance_smiles=c1csc(-c2c3ccc(=[N+]4CCCCC4)cc-3oc3cc(N4CCCCC4)ccc23)c1 measured_value=606
substance_smiles=CC(C)CCCCN1CCc2c1ccc1c3c(ccc21)CCCC3=O measured_value=539
substance_smiles=COc1ccc(-c2csc(/C(C#N)=C/c3ccc(C#N)cc3)n2)cc1 measured_value=555
substance_smiles=OC1(c2ccc(-c3cccs3)s2)CCC1 measured_value=415
substance_smiles=CCN(CC)c1ccc2cc(-c3cn4ccccc4n3)c(=O)oc2c1 measured_value=482
substance_smiles=COC(=O)c1c2ccccc2nc2ccccc12 measured_value=432
substance_smiles=O=Cc1ccc(-c2ccc(C3=CCCCC3)s2)s1 measured_value=498
substance_smiles=COC(=O)c1nc(-c2ccccc2)oc1C measured_value=324
substance_smiles=COc1cc2c(cc1/C=C/C(=C(C#N)C#N)c1ccccc1)c1ccccc1n2C measured_value=575

====

Listed here: items and their measured emission maximum.
# protocol-details: solvent given as SMILES
# condition-set: in c1cc(-n2c3ccccc3c3ccccc32)cc(-n2c3ccccc3c3ccccc32)c1
value-kind: emission maximum (nm)

substance_smiles=O=S1(=O)c2ccccc2C2(c3cc(-c4ccc(-n5c6ccccc6c6ccccc65)cc4)ccc3-c3ccc(-c4ccc(-n5c6ccccc6c6ccccc65)cc4)cc32)c2ccccc21 measured_value=412
substance_smiles=O=S(=O)(c1ccc(N2c3ccccc3Oc3ccccc32)cc1)c1ccc(N2c3ccccc3Oc3ccccc32)cc1 measured_value=505
substance_smiles=c1ccc(N(c2ccccc2)c2ccc(-c3ccc4c(c3)C3(c5cc(-c6ccc(N(c7ccccc7)c7ccccc7)cc6)ccc5-4)c4ccccc4N(c4ccccc4)c4ccccc43)cc2)cc1 measured_value=432
